- Tested on: human colon carcinoma HCT-116 WT cells
- PROTOCOL SUMMARY: Cell growth assay (resazurin), HCT-116 wild-type
- Assay type: cell-based
- RECORDED CONDITIONS: Homo sapiens, HCT-116; Table 2
MEASURED METRIC: IC50 (µM)
The response must be a number in µM with no trailing unit.

The cases that follow already have their IC50 on record.
- MOLECULE: "Cc1n[nH]c2c1C(c1cc(C#CCCC(N)=O)cc(C(F)(F)F)c1)(C(C)C)C(C#N)=C(N)O2 (stereo not shown)"
  RESULT VALUE: 5.98
- MOLECULE: "Cc1n[nH]c2c1C(c1cc(C#N)cc(C#CCCCO)c1)(C(C)C)C(C#N)=C(N)O2 (stereo not shown)"
  RESULT VALUE: 4.96
- MOLECULE: "COC(=O)CCC#Cc1cc(C(F)(F)F)cc(C2(C(C)C)C(C#N)=C(N)Oc3[nH]nc(C)c32)c1 (stereo not shown)"
  RESULT VALUE: 11.1

Consider the record given below.
Problem: Find IC50 for Cc1n[nH]c2c1C(c1cc(C#CCCC(=O)NC(C)(C)C(=O)O)cc(C(F)(F)F)c1)(C(C)C)C(C#N)=C(N)O2 (stereo not shown) on human colon carcinoma HCT-116 WT cells and write it down.
Result: 200
